Entries and their measured fraction ligated follow.
B1: minF1; the commonest letter at each place (parent)
chain: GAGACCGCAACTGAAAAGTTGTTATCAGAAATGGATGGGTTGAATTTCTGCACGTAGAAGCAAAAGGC

Variants of: B1
EXPERIMENT: fraction ligated after 30 min (ligated reads / total reads); higher = more ligase activity
TEST SETTINGS: with F1*subA RNA substrate (template-directed ligation), 42 °C

IN: Give its fraction ligated value. Item: GAGACCGCAACTGAAAAGTTGTTATCACAAATGGATGGGTTGAGTTTCTGCACGTAGAAGCAAAAGGC [G28C A44G]
OUT: 0.674

IN: What do we get for GAGACCGCAACTGAAAAGTTGTTATCGGAAATGGATGGGTTGACTTTCTGCACGTAGAAGCAAAAGGC [A27G A44C] ?
OUT: 0.69
